These data points were gathered from the supplement of paper PMC7125110.

B1: glmS ribozyme (parent)
chain: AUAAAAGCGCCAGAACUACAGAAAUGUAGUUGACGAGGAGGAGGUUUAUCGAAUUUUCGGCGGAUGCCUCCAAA

Variants of: B1
Experiment: self-cleavage kobs at 40 uM GlcN6P; higher = faster cleavage; RNA array
Conditions: with glucosamine-6-phosphate
Variants at the floor of the assay were thinned out.
Listed variants paired with reported self-cleavage kobs at 40 uM GlcN6P

- C34U C61A C67G: 0.00044 s⁻¹
- C8U C34G: < 1e-05 s⁻¹

Q: Give its self-cleavage kobs at 40 uM GlcN6P value. Item: C8G A12C A15G U30G G38A U46C
Ans: < 1e-05 s⁻¹

Q: Endpoint output: self-cleavage kobs at 40 uM GlcN6P of G43A G63U . Value?
Ans: < 1e-05 s⁻¹

Q: // returns reported self-cleavage kobs at 40 uM GlcN6P for input U30A U55A C61A
Ans: < 1e-05 s⁻¹

Q: GET /values?readout=self-cleavage kobs at 40 uM GlcN6P&item= G29A C34U U47G A48G C67G
Ans: 0.000265 s⁻¹

Q: Any idea what self-cleavage kobs at 40 uM GlcN6P was measured for G29U C34A C61U ?
Ans: < 1e-05 s⁻¹

Q: Give its self-cleavage kobs at 40 uM GlcN6P value. Item: G32C G40A A53C
Ans: < 1e-05 s⁻¹

Q: Field request: self-cleavage kobs at 40 uM GlcN6P | item: C34U U54A
Ans: < 1e-05 s⁻¹

Q: Would you mind telling me what self-cleavage kobs at 40 uM GlcN6P value was observed for A15U U31A ?
Ans: 3.45e-05 s⁻¹
